experiment: gradient 5% acetonitrile 3 min, to 50% in 2 min, to 85% in 15 min, held 3 min, 100 µL/min; conditions: column: Zorbax Extend-C18 2.1 x 50 mm; eluents: water / acetonitrile, 0.1% formic acid
measurement.name: RP-LC retention time (s)

Guide cases for RP-LC retention time, answers given:
CC1(C(=O)NC2CCCC2)CC(c2ccccc2)=NO1 (configuration not stated) = 700
COc1ccc(S(=O)(=O)N2CCN(CCO)CC2)c2ccccc12 = 573
Cc1ccc(NC(=O)CSc2nc(N3CCCCC3)nc3ccccc23)c(Cl)c1 = 901
CC(=O)N1CCCSc2ccc(S(=O)(=O)N3CCN(c4cccc(Cl)c4)CC3)cc21 = 1050

P. CCCCn1cc(S(=O)(=O)Nc2ccc(Cl)cc2)c2cccnc21
Q. CC1CCN(C(=O)CCC(=O)N2CCCN(c3nc4cccnc4s3)CC2)CC1
Dear colleague, could you let me know whether P or Q has the lower recorded RP-LC retention time? Thanks. Response format: the label of the selected entry. Q

I. COc1ccccc1C(=O)Nc1nc(-c2ccc3c(c2)NC(=O)C(C)O3)cs1 (configuration not stated)
II. COc1ccccc1-c1csc(NC(=O)c2sc(COc3ccc(Cl)c(C)c3)nc2C)n1
Dear colleague, could you let me know whether I or II has the lower recorded RP-LC retention time? Thanks. Response format: the label of the selected entry. I

I. CCOc1ccc(C2C3=C(CCCC3=O)Nc3c2c(=O)n(C)c(=O)n3C)cc1OC (configuration not stated)
II. Cc1ccc(S(=O)(=O)NC(c2nc(-c3ccc(-c4csc(C)n4)cc3)no2)C(C)C)cc1 (configuration not stated)
Given the listed records, identify the one among I and II with higher RP-LC retention time. Response format: the label of the selected entry. II
(II: 1160 s, I: 806 s)

====

experiment: gradient 5% acetonitrile 3 min, to 50% in 2 min, to 85% in 15 min, held 3 min, 100 µL/min; settings: column: Zorbax Extend-C18 2.1 x 50 mm; eluents: water / acetonitrile, 0.1% formic acid
measurement.name: RP-LC retention time (s)

Guide cases for RP-LC retention time, answers given:
O=C(Cc1ccc(F)cc1)NC1CCN(c2cc(-c3ccccc3)[nH]n2)C1 (stereo not drawn) = 706
COc1ccc(-c2noc(Cn3c(=O)n(CC(C)C)c(=O)c4ccccc43)n2)cc1OC = 1050
CCc1nc2cc3c(cc2n1CC(=O)N1CCCCC1)OCCO3 = 600

A. CCCCOc1ccc(-c2cc3c4nnc(CCC(=O)N5CCN(C(C)C)CC5)n4ccn3n2)cc1
B. Cc1ccc(S(=O)(=O)NC(C)c2nc(-c3ccc(-c4csc(C)n4)cc3)no2)cc1 (stereo not drawn)
Dear colleague, could you let me know whether A or B has the lower recorded RP-LC retention time? Thanks. Response format: the label of the selected entry. A

====

assay: gradient 5% acetonitrile 3 min, to 50% in 2 min, to 85% in 15 min, held 3 min, 100 µL/min; settings: column: Zorbax Extend-C18 2.1 x 50 mm; eluents: water / acetonitrile, 0.1% formic acid
measurement.name: RP-LC retention time (s)

Guide cases for RP-LC retention time, answers given:
O=C(NCCc1csc(-c2cccs2)n1)C1CCN(C(=O)CCc2ccccc2)CC1 = 839
O=C(NC1CCCC1)c1ccc2c(c1)nc1n2CCCCC1 = 600
CCCn1cc(C2=CCN(C(=O)NCc3ccc(C)cc3)CC2)c2cccnc21 = 939
O=C(CSc1nc(CC(=O)N2CCN(c3ccccn3)CC2)cs1)c1cccs1 = 567
CCCn1cc(C(=O)NC2CCN(Cc3ccccc3)CC2)c2cccnc21 = 624

I. O=C(NCCc1nc2cccnc2n1-c1ccccc1)c1ccoc1
II. Cc1cc(C)c(S(=O)(=O)N2CCC(C(=O)NCCc3csc(-c4ccccc4)n3)CC2)cc1C
Dear colleague, could you let me know whether I or II has the lower recorded RP-LC retention time? Thanks. Response format: the label of the selected entry. I
(I: 646 s, II: 1070 s)

P. CC1CCCN(c2ccc(-c3csc(S(=O)(=O)N4CCCCC4)c3)nn2)C1 (stereo not given)
Q. Cc1ccc(C(=O)N2CCCC2c2nc(-c3cccc(Cl)c3)no2)c(C)c1 (stereo not given)
Given the listed records, identify the one among P and Q with higher RP-LC retention time. Response format: the label of the selected entry. Q
(Q: 1200 s, P: 817 s)

====

assay: gradient 5% acetonitrile 3 min, to 50% in 2 min, to 85% in 15 min, held 3 min, 100 µL/min; conditions: column: Zorbax Extend-C18 2.1 x 50 mm; eluents: water / acetonitrile, 0.1% formic acid
measurement.name: RP-LC retention time (s)

Guide cases for RP-LC retention time, answers given:
O=C(Cn1cccc(-c2nc(-c3ccccc3)no2)c1=O)Nc1cc(C(F)(F)F)ccc1Cl = 1040
O=C(CN1CCc2[nH]c3c(Cl)cccc3c(=O)c2C1)NCc1ccccc1 = 598
CCOc1ccc(NC(=O)CN2C(=O)c3ccccc3Sc3ncccc32)cc1 = 843
Fc1ccc(-c2nc(-c3cccc(-c4ccn[nH]4)c3)no2)c(F)c1 = 992
CN1C(=O)[C@H]2CN(Cc3cc(F)cc(F)c3)C[C@H]2C1=O = 610
CC(Sc1nnnn1-c1ccccc1)C(=O)Nc1ccc(N2CCN(C)CC2)cc1 (stereo not given) = 580
COc1ccccc1NC(=O)c1cnc2c(c1)c(=O)n(C)c(=O)n2-c1ccccc1 = 922
O=C(c1ccc(Cl)s1)N1CCCC(CCc2nnc(C3CCOCC3)o2)C1 (stereo not given) = 790
O=C(CN1CCc2[nH]c3c(F)c(Cl)ccc3c(=O)c2C1)NCc1ccc2c(c1)OCO2 = 661
CNC(=O)C1CCCN(c2nc3ncn(CC(=O)NCc4ccc(OC)cc4)c(=O)c3s2)C1 (stereo not given) = 632

a. CCc1c(C2CCN(C(=O)c3cc(C)on3)CC2)noc1N
b. Fc1ccc(-c2nnc(Cc3nc(-c4ccccc4)no3)o2)cc1
Given the listed records, identify the one among a and b with higher RP-LC retention time. Response format: the label of the selected entry. b

====

assay: gradient 5% acetonitrile 3 min, to 50% in 2 min, to 85% in 15 min, held 3 min, 100 µL/min; conditions: column: Zorbax Extend-C18 2.1 x 50 mm; eluents: water / acetonitrile, 0.1% formic acid
measurement.name: RP-LC retention time (s)

O=C(CCCSc1ccc(NC(=O)c2cccs2)nn1)Nc1cnc2ccccc2c1 = 706
O=c1ccc(-c2ccc(F)cc2)nn1CCc1nc(-c2ccc(F)cc2)no1 = 712
CCOc1ccccc1N1CCN(C(=O)C2CCCN(c3nccc4sc(C)cc34)C2)CC1 (stereo unspecified) = 713

a. CC(=O)c1cccc(NC(=O)N2CCN(c3nc4ccccc4n3C)CC2)c1
b. Fc1ccc(-c2ccc(-c3nn4c(-c5ccco5)nnc4s3)o2)cc1
Dear colleague, could you let me know whether a or b has the lower recorded RP-LC retention time? Thanks. Response format: the label of the selected entry. a

====

test: gradient 5% acetonitrile 3 min, to 50% in 2 min, to 85% in 15 min, held 3 min, 100 µL/min; conditions: column: Zorbax Extend-C18 2.1 x 50 mm; eluents: water / acetonitrile, 0.1% formic acid
measurement.name: RP-LC retention time (s)

Guide cases for RP-LC retention time, answers given:
CSc1nnc(-c2nn(C)c3c2CN(C(=O)c2ccccc2F)CC3)n1C = 697
O=C(c1csc(N2CCN(c3ccc(Cl)cc3)CC2)n1)N1CCCCC1 = 1130
Cc1ccc(Sc2nccnc2N2CCCC(C(=O)N3CCN(c4ccccn4)CC3)C2)cc1 (stereo not drawn) = 768
CN(C)S(=O)(=O)c1ccc(-c2nnc(C(=O)N3CCCCC3)o2)cc1 = 824
O=C([C@@H]1C[C@H](F)CN1S(=O)(=O)c1ccc2c(c1)OCCO2)N1CCCCC1 = 759

P. CC1CCc2[nH]nc(C(=O)NCC3CCCO3)c2C1 (stereo not drawn)
Q. Cc1ccc(S(=O)(=O)N2CCC(n3cnc4c(C)cccc4c3=O)CC2)cc1F
Given the listed records, identify the one among P and Q with higher RP-LC retention time. Response format: the label of the selected entry. Q

====

test: gradient 5% acetonitrile 3 min, to 50% in 2 min, to 85% in 15 min, held 3 min, 100 µL/min; conditions: column: Zorbax Extend-C18 2.1 x 50 mm; eluents: water / acetonitrile, 0.1% formic acid
measurement.name: RP-LC retention time (s)

CCOCCCNC(=O)N1CCC2(CC1)NC(=O)c1ccccc1O2 = 652

A. COC(=O)c1c(C)[nH]c(C(=O)N2CCC(CC(=O)NCc3ccc(N(C)C)cc3)CC2)c1C
B. COCCN1C(=O)Cc2ccccc2C1C(=O)NCc1ccc(Cl)cc1 (stereo not given)
Dear colleague, could you let me know whether A or B has the lower recorded RP-LC retention time? Thanks. Response format: the label of the selected entry. A

====

experiment: gradient 5% acetonitrile 3 min, to 50% in 2 min, to 85% in 15 min, held 3 min, 100 µL/min; conditions: column: Zorbax Extend-C18 2.1 x 50 mm; eluents: water / acetonitrile, 0.1% formic acid
measurement.name: RP-LC retention time (s)

COC(=O)c1cccc(N2C=C(C(=O)N3CCCC3)S(=O)(=O)c3ccc(F)cc32)c1 = 788
CCN1CCN(Cc2ccc(C(=O)Nc3ccc(C)c(Oc4ccc5c(c4)CC(=O)N5)c3)cc2C(F)(F)F)CC1 = 817
Cc1oc(-c2[nH]ncc2C(=O)N2CCCC2)cc1S(=O)(=O)NCc1cccc(Cl)c1 = 796
Cn1cc(CC(=O)NCc2cc(-c3ccc4c(c3)OCO4)on2)c2ccccc21 = 813
CCOc1ccc(CCNC(=O)C2CCCN(c3ncnc4c3nc3n4CCCCC3)C2)cc1 (stereo not given) = 807
